# reported TGI; entries follow
test system: HT29 colon; experiment: NCI tumour cell line growth inhibition, 48 h

Some solved cases for reference:
[[record]]
compound = "C=C(Cl)C(Cl)(CBr)CCCC(C)C (stereo unspecified)"
assay_system = "HT29 colon"
measurement = "15.7 µM"

[[record]]
compound = "Cc1ccc(S(=O)(=O)NC(=O)Nc2ncn[nH]2)cc1"
assay_system = "HT29 colon"
measurement = "> 100 µM"

[[record]]
compound = "CCOC1OC(CO[Si](C)(C)C(C)(C)C)C(O)CC1n1ccc(=O)[nH]c1=O (stereo unspecified)"
assay_system = "HT29 colon"
measurement = "> 100 µM"


# input Quickly give me recorded TGI for C=CCN=C1NC(=O)C(CC(=O)Nc2ccc([N+](=O)[O-])cc2[N+](=O)[O-])S1 (stereo unspecified)
# output > 100 µM

# input Report measured TGI; entry is CCc1cn(C2CC(CO)C(CO)S2)c(=O)[nH]c1=O (stereo unspecified)
# output > 100 µM

# input Please report TGI for the following compound: CCOP(=O)(OCC)/C(C#N)=C/c1cccn1C
# output > 100 µM

# input Please report TGI for the following compound: O=C1OC(=O)c2c1cc1cc3c(cc1c2-c1ccc2c(c1)OCO2)OCO3
# output > 100 µM
